Where do these numbers come from? They come from patent US20260315612A1.

- Tested on: SKBR-3 cell line (human breast cancer)
- procedure summary: Cytotoxicity Assay (Cell titer glo, 72 h), SKBR-3
- Assay type: cell-based
- test conditions: ratio of payload IC50 to DXD control IC50
property name: Normalized IC50 (PL IC50/DXD IC50)

CC[C@@]1(O)C(=O)OCc2c1cc1n(c2=O)Cc2c-1nc1cc(F)c(C)cc1c2Cn1cc(CN2CCCC(N)C2)nn1 (stereo partly shown)	22.96
CC[C@@]1(O)C(=O)OCc2c1cc1n(c2=O)Cc2c-1nc1cc(F)c(C)cc1c2Cn1cc(COCCN)nn1	17.60
CC[C@@]1(O)C(=O)OCc2c1cc1n(c2=O)Cc2c-1nc1cc(F)c(C)cc1c2Cn1nnc(CO)c1CO	41.69
CC[C@@]1(O)C(=O)OCc2c1cc1n(c2=O)Cc2c-1nc1cc(F)c(C)cc1c2Cn1cc(C(C)N)nn1 (stereo partly shown)	3.72
